meta.source: patent US20240391862A1

- System: TRZAS
- EXPERIMENTAL PROTOCOL: Pre-emergence herbicidal effect and crop plant compatibility, greenhouse pot test
- Assay type: in vivo, Triticum aestivum
- STUDY CONDITIONS: 320 g/ha, scored visually after about 3 weeks vs untreated controls
RECORDED METRIC: Pre-emergence effect at 320 g/ha against TRZAS in % (%)
One number for each entry, in %.

# example entries with known answers
- COMPOUND: "COC(=O)C(OC)Oc1nn(-c2ncccc2F)c(-c2ccc(Cl)cc2)c1Br (stereo not shown) [Example I-03]"
  REPORTED MEASUREMENT: 0
- COMPOUND: "CCOC(=O)C(OCC)Oc1nn(-c2ccc(Cl)cc2F)c(-c2ccc(F)cc2F)c1Br (stereo not shown) [Example I-09]"
  REPORTED MEASUREMENT: 20
- COMPOUND: "CCOC(=O)C(OCC)Oc1nn(-c2ncccc2F)c(-c2ccc(F)cc2F)c1Br (stereo not shown) [Example I-08]"
  REPORTED MEASUREMENT: 0

Okay, next one:
QUERY: For the compound COC(=O)C(OC)Oc1nn(-c2ccc(Cl)cc2F)c(-c2ccc(F)cc2F)c1Br (stereo not shown) [Example I-11] , what Pre-emergence effect at 320 g/ha against TRZAS in % is on record?
RESULT: 0
